Each entry below carries its recorded pKi.
Molecular target: 5-HT2A receptor (Homo sapiens)
pKi: −log10 of the molar value.
assay readout: pKi

                                   compound  assay_readout  value_observed
0  COc1cccc(N2CCN(CCCCCCn3nc4ccccn4c3=O)CC2)c1 [10k]            pKi            6.46
1  CCOc1ccccc1N1CCN(CCCCCCn2nc3ccccn3c2=O)CC1 [10m]            pKi            5.81
2  O=c1n(CCCN2CCN(c3ccccc3F)CC2)nc2ccccn12 [10b]            pKi            6.01
3  O=c1n(CCCCCCN2CCN(c3ccc(Cl)cc3)CC2)nc2ccccn12 [10g]            pKi            6.63
4  O=c1n(CCCCCCN2CCN(c3ccccc3-c3ccccc3)CC2)nc2ccccn12 [10r]            pKi            6.48

====

pKi: −log10 of the molar value.
Hi! I'm sharing some pKi results obtained with UniProt P34969.
Sequence (P34969 whole entry): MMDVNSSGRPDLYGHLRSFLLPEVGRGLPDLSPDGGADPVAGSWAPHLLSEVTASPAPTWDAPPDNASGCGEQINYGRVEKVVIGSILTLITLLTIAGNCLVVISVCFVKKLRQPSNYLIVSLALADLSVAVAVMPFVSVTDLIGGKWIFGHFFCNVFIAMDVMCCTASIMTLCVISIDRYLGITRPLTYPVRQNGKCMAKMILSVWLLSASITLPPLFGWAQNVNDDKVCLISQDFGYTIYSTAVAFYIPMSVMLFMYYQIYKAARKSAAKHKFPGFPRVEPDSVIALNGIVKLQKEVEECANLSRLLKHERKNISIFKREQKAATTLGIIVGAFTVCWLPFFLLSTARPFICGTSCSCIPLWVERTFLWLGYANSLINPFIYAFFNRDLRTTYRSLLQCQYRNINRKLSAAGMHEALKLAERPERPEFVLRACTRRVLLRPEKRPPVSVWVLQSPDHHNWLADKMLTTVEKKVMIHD
assay readout: pKi

>>> df
                                   molecule  assay_readout  value_observed
0  O=c1n(CCCN2CCN(c3ncccn3)CC2)nc2ccccn12 [10c]            pKi            6.76
1  O=c1n(CCCCCCN2CCN(c3ccc(Cl)cc3)CC2)nc2ccccn12 [10g]            pKi            6.36
2  O=c1n(CCCCCCN2CCN(c3ccccn3)CC2)nc2ccccn12 [10n]            pKi            5.98
3  COc1cccc(N2CCN(CCCCCCn3nc4ccccn4c3=O)CC2)c1 [10k]            pKi            5.99

====

Target: D2 receptor (Homo sapiens)
Sequence (P14416 whole entry): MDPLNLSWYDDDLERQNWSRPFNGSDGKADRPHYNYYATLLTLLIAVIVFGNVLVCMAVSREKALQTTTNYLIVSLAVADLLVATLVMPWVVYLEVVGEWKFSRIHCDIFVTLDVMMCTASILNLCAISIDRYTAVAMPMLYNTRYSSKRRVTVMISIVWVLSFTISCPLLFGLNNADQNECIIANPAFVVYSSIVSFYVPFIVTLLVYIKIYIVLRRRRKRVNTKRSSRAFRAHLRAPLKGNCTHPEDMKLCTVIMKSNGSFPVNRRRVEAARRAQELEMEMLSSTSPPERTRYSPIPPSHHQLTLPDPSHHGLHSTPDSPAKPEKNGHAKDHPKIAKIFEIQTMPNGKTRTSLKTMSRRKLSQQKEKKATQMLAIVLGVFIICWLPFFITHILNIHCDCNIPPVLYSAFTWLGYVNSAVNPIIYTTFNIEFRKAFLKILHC
Experiment: in vitro binding to D2 receptor (screening protocol)
Settings: read-out: Ki ± SD D2
Description: The ligands obtained in the synthesis (10a–r) were tested in vitro for binding to D2, 5-HT1A, 5-HT2A, 5-HT6, and 5-HT7 receptors on the basis of the screening protocol described previously (Table 6).
pKi: −log10 of the molar value.
Recorded pKi, one value per entry.
assay readout: pKi

>>> df
                                   compound               target_entity  value_observed
0  O=c1n(CCCCCCN2CCN(c3cccc(Cl)c3)CC2)nc2ccccn12 [10e]  D2 receptor (Homo sapiens)            6.86
1  COc1ccc(N2CCN(CCCCCCn3nc4ccccn4c3=O)CC2)cc1 [10l]  D2 receptor (Homo sapiens)            6.46
2  O=c1n(CCCCCCN2CCN(c3ccc(Cl)c(Cl)c3)CC2)nc2ccccn12 [10h]  D2 receptor (Homo sapiens)            6.51
3  O=c1n(CCCCCCN2CCN(c3ccccc3F)CC2)nc2ccccn12 [10i]  D2 receptor (Homo sapiens)            6.71
4  O=c1n(CCCCCCN2CCN(c3ccccc3-c3ccccc3)CC2)nc2ccccn12 [10r]  D2 receptor (Homo sapiens)            6.72
5  O=c1n(CCCN2CCN(c3ncccn3)CC2)nc2ccccn12 [10c]  D2 receptor (Homo sapiens)            6.91

====

pKi: −log10 of the molar value.
Data export: pKi values recorded with 5-HT2A receptor (Homo sapiens, UniProt P28223).
Sequence (P28223 whole entry): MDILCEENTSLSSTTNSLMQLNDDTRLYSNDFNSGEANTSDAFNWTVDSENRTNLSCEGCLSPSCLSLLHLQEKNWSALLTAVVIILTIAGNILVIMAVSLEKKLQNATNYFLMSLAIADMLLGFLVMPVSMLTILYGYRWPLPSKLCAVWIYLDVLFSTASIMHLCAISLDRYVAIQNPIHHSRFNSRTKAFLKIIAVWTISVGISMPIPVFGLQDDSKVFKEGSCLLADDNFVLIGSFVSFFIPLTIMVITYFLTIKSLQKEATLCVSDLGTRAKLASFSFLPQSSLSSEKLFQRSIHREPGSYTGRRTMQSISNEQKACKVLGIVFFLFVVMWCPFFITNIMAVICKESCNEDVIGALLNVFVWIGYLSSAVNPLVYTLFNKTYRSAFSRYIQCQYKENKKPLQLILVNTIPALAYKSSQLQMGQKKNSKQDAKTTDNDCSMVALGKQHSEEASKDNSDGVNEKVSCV
assay readout: pKi

                                   compound  assay_readout  value_observed
0  O=c1n(CCCCCCN2CCN(c3cccc(Cl)c3)CC2)nc2ccccn12 [10e]            pKi            6.47
1  O=c1n(CCCN2CCN(c3ncccn3)CC2)nc2ccccn12 [10c]            pKi            6.75
2  COc1ccccc1N1CCN(CCCCCCn2nc3ccccn3c2=O)CC1 [10j]            pKi            6.08

Where do these numbers come from? They come from paper PMC6515286.
